- SYSTEM: human DGKζ (Homo sapiens)
- Construct: TVMV protease cleavage site (C); Hexa-His (C); made in house; host or cells: Sf9 insect cells (baculovirus, Bac-to-Bac)
- Sequence (Q13574 with tags, fused parts or gaps isoform Q13574-4): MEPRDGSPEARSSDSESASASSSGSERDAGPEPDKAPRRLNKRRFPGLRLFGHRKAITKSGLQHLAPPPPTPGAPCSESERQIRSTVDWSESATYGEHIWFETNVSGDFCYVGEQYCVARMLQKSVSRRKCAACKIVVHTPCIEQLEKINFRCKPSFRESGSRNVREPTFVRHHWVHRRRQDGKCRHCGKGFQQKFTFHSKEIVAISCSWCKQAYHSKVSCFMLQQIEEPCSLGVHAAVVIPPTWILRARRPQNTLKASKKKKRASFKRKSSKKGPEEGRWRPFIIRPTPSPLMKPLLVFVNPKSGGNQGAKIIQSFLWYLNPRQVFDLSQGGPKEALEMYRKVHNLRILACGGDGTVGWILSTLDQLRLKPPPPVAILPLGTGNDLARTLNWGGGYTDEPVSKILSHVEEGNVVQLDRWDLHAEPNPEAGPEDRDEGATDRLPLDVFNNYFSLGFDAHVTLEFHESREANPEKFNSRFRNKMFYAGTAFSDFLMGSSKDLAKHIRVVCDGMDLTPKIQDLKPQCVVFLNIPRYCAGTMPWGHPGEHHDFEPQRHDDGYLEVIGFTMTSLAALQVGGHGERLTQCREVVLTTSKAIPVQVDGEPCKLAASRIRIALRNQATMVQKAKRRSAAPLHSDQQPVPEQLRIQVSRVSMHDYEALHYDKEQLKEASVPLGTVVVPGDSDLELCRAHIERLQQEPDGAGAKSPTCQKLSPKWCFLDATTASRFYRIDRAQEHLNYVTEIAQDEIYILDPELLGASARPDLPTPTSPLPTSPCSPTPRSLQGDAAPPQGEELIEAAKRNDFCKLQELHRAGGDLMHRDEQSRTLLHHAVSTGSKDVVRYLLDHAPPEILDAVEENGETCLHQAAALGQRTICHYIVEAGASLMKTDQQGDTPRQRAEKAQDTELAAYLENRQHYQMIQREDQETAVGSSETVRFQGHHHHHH
- ASSAY_NAME: DGKζ LIPGLO assay (extruded liposome substrate), in vitro DGK inhibition
- Assay type: biochemical
- EXPERIMENTAL_PARAMETERS: DGKζ liposome (LIPGLO) assay; read-out: DGKz LIPGLO IC50
# reported IC50; entries follow

- CC(c1cccc(C(F)(F)F)c1)N1CCN(c2c(C#N)c(=O)n(C)c3ccc(C#N)nc23)C[C@H]1C (single isomer, unassigned) [Example 972]: 15 µM

For C[C@@H]1CN(c2c(C#N)c(=O)n(C)c3ccc(C#N)nc23)CCN1C(c1ccc(F)cc1)c1ccc(Cl)cn1 (stereo partly shown) [Example 933] on human DGKζ (Homo sapiens), measured IC50 was 1 µM

Item: C[C@@H]1CN(c2c(C#N)c(=O)n(C)c3ccc(C#N)nc23)CCN1C(c1ccc(F)cc1)c1cccc2c1OC(C)(C)C2 (single isomer, unassigned) [Example 934] | System: human DGKζ (Homo sapiens) | IC50: 5.4 µM

Measured IC50 for this entry CC(c1ccccc1C(F)(F)F)N1CCN(c2c(C#N)c(=O)n(C)c3ccc(C#N)nc23)C[C@H]1C (single isomer, unassigned) [Example 966] on human DGKζ (Homo sapiens): > 250 µM

So the reported IC50 for Cc1ccc(F)c(CN2CCN(c3c(C#N)c(=O)n(C)c4ccc(C#N)nc34)C[C@H]2C)c1 [Example 1006] , on human DGKζ (Homo sapiens), turned out to be 7 µM

So the reported IC50 for Cc1ccc(CN2CCN(c3c(C#N)c(=O)n(C)c4ccc(C#N)nc34)C[C@H]2C)cc1 [Example 1007] , on human DGKζ (Homo sapiens), turned out to be 3.9 µM

IC50 of Cc1ccc(C(c2ccc(Cl)cc2)N2C[C@H](C)N(c3c(C#N)c(=O)n(C)c4ccc(C#N)nc34)C[C@H]2C)cc1 (stereo partly shown) [Example 826] , assay on human DGKζ (Homo sapiens), is 3.1 µM

I looked up C[C@@H]1CN(c2c(C#N)c(=O)n(C)c3ccc(C#N)nc23)CCN1C(c1ccccc1)c1ccc(F)cc1 (single isomer, unassigned) [Example 878] and its IC50 for human DGKζ (Homo sapiens) was 1.3 µM

Item C[C@@H]1CN(c2c(C#N)c(=O)n(C)c3ccc(C#N)nc23)CCN1C(c1ccc(F)cc1)c1ccc(F)cn1 (stereo partly shown) [Example 903] was tested on human DGKζ (Homo sapiens); the reported IC50 is 3.5 µM

human DGKζ (Homo sapiens) IC50 of C[C@@H]1CN(c2c(C#N)c(=O)n(C)c3ccc(C#N)nc23)[C@@H](C)CN1C(c1ccc(F)cc1)c1nc(C2CC2)no1 (single isomer, unassigned) [Example 861] is 0.63 µM

Recorded IC50 for C[C@@H]1CN(c2cc(=O)n(C)c3ccc(C#N)nc23)[C@@H](C)CN1C(c1ccc(F)cc1)c1cscn1 (stereo partly shown) [Example 721] on human DGKζ (Homo sapiens) was 1.1 µM

Record C[C@@H]1CN(c2c(C#N)c(=O)n(C)c3ccc(C#N)nc23)CCN1Cc1c(F)cccc1Cl [Example 984] has human DGKζ (Homo sapiens) IC50 equal to 0.88 µM

The reported IC50 value, human DGKζ (Homo sapiens), for C[C@@H]1CN(c2c(C#N)c(=O)n(C)c3ccc(C#N)nc23)CCN1C(c1ccc(F)cc1)c1ccc(F)cn1 (stereo partly shown) [Example 902] reads 2.6 µM
